- System: human peripheral blood mononuclear cells (PBMCs)
- TEST: Human PBMC activation assay, cytokine levels (IL-10, IL-6, MCP-1, TNF-α) in supernatant after 24 hours (Example 9)
- CONDITION_SET: human PBMC supernatant after 24 hours; 0.0128 μM oligonucleotide
EXPERIMENTAL_ENDPOINT: Levels of IL-6 (pg/mL)
Your answer should be a plain number; it is taken to be in pg/mL.

These solved cases illustrate the format of a correct answer.
[[record]]
substance = "736697 (antisense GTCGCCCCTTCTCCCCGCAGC; chemistry not fully specified) [compound 736697]"
measure_unit = "pg/mL"
experimental_result = 3.6

[[record]]
substance = "830025 (antisense TTTGTAAATCGAAAGC; 3-10-3 cEt gapmer, further chemistry not given here) [compound 830025]"
measure_unit = "pg/mL"
experimental_result = 3.1


Proceeding to the next substance to report its Levels of IL-6.
Any idea what Levels of IL-6 was measured for 798781 (CGTAAGATTCACAGCA; 3-10-3 cEt gapmer, further chemistry not given here) [compound 798781] ?
3.4
